Biological target: T1, Mouse
T1 construct: also called mouse EphA4 extracellular domain-SEAP-His protein
Assay: ELISA
Readout Label: absorbance

1. KPEP11_20 (antibody, V domains shown, Rabbit IgG; also called anti-human EphA4 rabbit monoclonal antibody KPEP11_20) VH: QSLEESGGRLVTPGTPLTLTCTVSGFSLNNYYMNWVRQAPGKGLEWIGIIYPDIDTTDYASWVKGRFTISKTSTTVDLKITSPTTEDTATYFCARSDIDYYTTRLDLWGQGTLVTISS VL: AQVLTQTPSPVSAAVGGTVSINCQSSPSVYNNNWLSWFQQKPGQPPKLLIYGASTLASGVPSRFKGSGSGTQFTLTISDVQCDDAATYYCAGGYDSNSDTAFGGGTELEILG: 0.052
2. KPEP11_13 (antibody, V domains shown, Rabbit IgG; also called anti-human EphA4 rabbit monoclonal antibody KPEP11_13) VH: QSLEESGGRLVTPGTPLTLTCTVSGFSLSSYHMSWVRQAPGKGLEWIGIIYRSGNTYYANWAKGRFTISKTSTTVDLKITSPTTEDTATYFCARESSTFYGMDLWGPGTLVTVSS VL: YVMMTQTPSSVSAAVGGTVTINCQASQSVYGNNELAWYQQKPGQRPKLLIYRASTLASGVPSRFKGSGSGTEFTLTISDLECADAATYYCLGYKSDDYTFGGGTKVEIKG: 0.082
3. KPEP11_07 (antibody, V domains shown, Rabbit IgG; also called anti-human EphA4 rabbit monoclonal antibody KPEP11_07) VH: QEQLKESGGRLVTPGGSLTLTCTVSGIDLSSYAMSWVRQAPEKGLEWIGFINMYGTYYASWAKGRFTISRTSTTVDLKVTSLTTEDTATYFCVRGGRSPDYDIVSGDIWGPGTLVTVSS VL: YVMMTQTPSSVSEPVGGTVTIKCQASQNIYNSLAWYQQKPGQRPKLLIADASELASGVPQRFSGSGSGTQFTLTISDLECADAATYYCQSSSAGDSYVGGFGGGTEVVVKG: 0.045
